# ASSAY_SYSTEM: T1, human A-beta(1-40) peptide, monomeric (BAM) (human, biotin at the C-terminus in capture ELISA, SPR and TR-FRET; not biotinylated where coated directly (Example 7))
# T1 construct: synthetic peptide (Anaspec), TFA/HFIP treated to give monomer; also called monomeric A-beta
# TEST_NAME: TR-FRET competition, labelled ABII42D4
OUTCOME_MEASURE: IC50 (nM)

INSERT INTO assay_data (binder, reported_measurement) VALUES
  ('ABII111B5_E109W (VHH, targeted mutant) VHH: EVQLVESGGGLVLAGGSLRLSCVHSGPTFRTDTMGWFRQAPGKEREFVAAVTWNSGRINYADSVKGRFTVSRDNTRNAAYLQMSGLKDEDTAVYYCTAHRFVVGGNMVWDWRYWGQGTQVTVSS', 4.7),
  ('ABII42D4 (VHH, also called ABIIPMP42D4) VHH: EVQLVESGGGLVLAGGSLRLSCVHSGPTFSTDTMGWFRQAPGKEREFVAAVTWNSGRTNYADSVKGRFTVSRDNTRNAAYLQMSGLKDEDTAVYYCTAHRLVVGGTSVGDWRYWGQGTQVTVSS', 44),
  ('ABII111B5_N106V (VHH, targeted mutant) VHH: EVQLVESGGGLVLAGGSLRLSCVHSGPTFRTDTMGWFRQAPGKEREFVAAVTWNSGRINYADSVKGRFTVSRDNTRNAAYLQMSGLKDEDTAVYYCTAHRFVVGGVMVEDWRYWGQGTQVTVSS', 10),
  ('ABII111B5_R30W (VHH, targeted mutant) VHH: EVQLVESGGGLVLAGGSLRLSCVHSGPTFWTDTMGWFRQAPGKEREFVAAVTWNSGRINYADSVKGRFTVSRDNTRNAAYLQMSGLKDEDTAVYYCTAHRFVVGGNMVEDWRYWGQGTQVTVSS', 5),
  ('ABIIPMP111B9 (VHH, c-myc and (His)6 tags) VHH: EVQLVESGGGLVLAGGSLRLSCVHSGPTFGTDTMGWFRQAPGKEREFVAAVTWNSGRANYADSVKGRFTVSRDNTRNAAYLQMSGLKDEDTAVYYCTAHRFVVGGGCVKDWRYWGQGTQVTVSS', 19),
  ('ABIIPMP111F2 (VHH, c-myc and (His)6 tags) VHH: EVQLVESGGGLVLAGGSLRLSCVHSGPTFSTDTMGWFRQAPGKEREFVAAVTWNSGRTNYADSVKGRFTVSRDNTRNAAYLQMSGLKDEDTAVYYCTANRHSVGRLSVGDWRYWGQGSQVTVSS', 3.4),
  ('ABII111B5_N106T (VHH, targeted mutant) VHH: EVQLVESGGGLVLAGGSLRLSCVHSGPTFRTDTMGWFRQAPGKEREFVAAVTWNSGRINYADSVKGRFTVSRDNTRNAAYLQMSGLKDEDTAVYYCTAHRFVVGGTMVEDWRYWGQGTQVTVSS', 9.2);
